Each item that follows carries a reported TGI.
# Tested on: HOP-92 NSCLC
# MEASUREMENT_PROTOCOL: NCI tumour cell line growth inhibition, 48 h

Cn1c(=O)c2c(nc(Nc3ccc(Cl)cc3)n3c(=O)n(-c4ccccc4)c(=O)n23)n(C)c1=O ... > 100 µM
CSCCC(NC(=O)OCc1ccccc1)NC(=O)OCc1ccccc1 ... > 100 µM

Query NS(=O)(=O)c1nnc(NS(=O)(=O)c2ccccc2C(=O)O)s1 on HOP-92 NSCLC; TGI returned: > 100 µM

----------
Property: TGI; scope: individual molecules
# System: DMS 273 small cell lung
# MEASUREMENT_PROTOCOL: NCI tumour cell line growth inhibition, 48 h
State just the number; it will be interpreted in µM.

C=C1C(=O)O[C@@H]2[C@H](O)[C@@H](C)[C@@H]3C=CC(=O)[C@@]3(C)[C@H](OC(=O)C=C(C)C)[C@H]12 ... 3.24

Next:
So, Cc1c2c(cc3c(=O)ccn(CCN(C)C)c13)c(=O)ccn2CCN(C)C ? Its TGI was 16.3

----------
# Test system: T-47D breast
# MEASUREMENT_PROTOCOL: NCI tumour cell line growth inhibition, 48 h
Catalogue of TGI readings, one per entry.

Below: 8 compounds and their reported TGI.
c1ccc2nc(CCC3CCCCN3)ccc2c1 (centres undefined) ... > 100 µM
Cc1[nH]nc2c1N=C(c1ccccc1Cl)c1cc([N+](=O)[O-])ccc1N2 ... > 25 µM
COC(=O)c1cc(C(=CCC[C@H]2CC[C@@]3(C)C(CCC4C3CC[C@@]3(C)C4CC[C@@H]3C(C)CCCC(C)C)C2)c2cc(Cl)c(OC(=O)c3ccccc3)c(C(=O)OC)c2)cc(Cl)c1OC(=O)c1ccccc1 (some centres undefined) ... > 10 µM
CCOC(=O)Cn1c(=O)c2cc(-c3ccccc3)cc3c(Cl)nc4c(OC)c(OC)cc1c4c32 ... > 100 µM
O=[N+]([O-])c1c2nc3n(c2cc2c1nc1n2CCC1)CCC3 ... > 100 µM
O=C1CS/C(=N\S(=O)(=O)c2ccc(N3N=C4c5ccccc5CC4C3c3ccc(Cl)cc3)cc2)N1c1ccccc1 (centres undefined) ... > 100 µM
CC(Cc1ccccc1)NC1=NCCO1 (centres undefined) ... > 100 µM
Nc1ncnc2c1cnn2Cc1ccc(Cl)cc1 ... > 100 µM

According to the records, this compound C#CC(O)/C=C/C(O)CCCC(O)CC#CC(O)C#CC(O)CCCC(O)/C=C/CCCC(=O)CCCCCCCCCCCCCCCC(O)C(O)C#CC(=O)O (centres undefined) displays TGI of > 50 µM

----------
# Test system: MDA-MB-435
# MEASUREMENT_PROTOCOL: NCI tumour cell line growth inhibition, 48 h
TGI listing for selected molecules.

CCOC(=O)CSc1[nH]c(NC(=S)Nc2ccccc2)c(C(N)=O)c1C(N)=O ... > 10 µM
c1ccc2nc(CCC3CCCCN3)ccc2c1 (stereo not given) ... > 100 µM

Lab book: TGI of Nc1ncnc2c1cnn2Cc1ccc(Cl)cc1 noted as > 100 µM

So, CC(C)Nc1ncc2cc(Oc3ccc(F)cc3F)c(=O)n(C)c2n1 ? Its TGI was > 25 µM

Documented TGI of c1ccc(-c2cc(-c3cccs3)c(-c3cccs3)o2)cc1 : > 100 µM

Data point: C=CCCCCCCCCCOC1C=CC(OC(C)=O)C(COC(C)=O)O1 (stereo not given) ; TGI = > 100 µM

The molecule identified as CC(NC(C#N)CC12CC3CC(CC(C3)C1)C2)c1ccccc1 (stereo not given) registered its TGI at > 100 µM

For CC1(C)CCC(=O)NC1CC(=O)CC1NC(=O)CCC1(C)C (stereo not given) the molecule record lists TGI as > 100 µM

// field: TGI; key: O=C(N/N=C\c1ccccc1)Nc1cccc2ccccc12 ; value = > 100 µM

Kindly note the recorded TGI for Cn1c(=O)c2c(nc(Nc3ccc(Cl)cc3)n3c(=O)n(-c4ccccc4)c(=O)n23)n(C)c1=O , which is > 100 µM

Briefly, TGI measured for COc1cc2c(cc1OC)-c1cc3cc(OC)c(OC)cc3c(=O)n1CC2 : > 100 µM

What the record says about O=C(Nc1ccccc1)Nc1cccc(Oc2nnc(Cl)c3ccccc23)c1 : TGI is > 25 µM

----------
# Tested on: SK-MEL-5 melanoma
# MEASUREMENT_PROTOCOL: NCI tumour cell line growth inhibition, 48 h
Reported TGI values for a set of compounds

Worked examples, 4 compounds total:
CC1(CC2=C(C(=O)NCCO[Si](C)(C)C(C)(C)C)C3(OCCO3)C2=O)OCCO1 ... > 100 µM
CC1(C)CCC(=O)NC1CC(=O)CC1NC(=O)CCC1(C)C (configuration not stated) ... > 100 µM
c1ccc(C2=NCCc3cc4c(cc32)OCO4)cc1 ... > 100 µM
NS(=O)(=O)c1nnc(NS(=O)(=O)c2ccccc2C(=O)O)s1 ... > 100 µM

Value of measured TGI for the entry COc1cc2c(cn1)[nH]c1ccccc12 : > 100 µM

What the record says about c1ccc2nc(CCC3CCCCN3)ccc2c1 (configuration not stated) : TGI is > 100 µM

Looking up C=CCn1cc(C(=O)NC(=O)NCCCCCOC(=O)CCCCCCCCCCC(=O)OCCCCCNC(=O)NC(=O)c2cn(CC=C)c(=O)n(C)c2=O)c(=O)n(C)c1=O , I see its TGI listed as > 100 µM

According to the records, this compound Clc1c(C(Cl)(Cl)Cl)nsc1N1CCCCC1 displays TGI of 29.6 µM

----------
# System: SK-MEL-5 melanoma
# MEASUREMENT_PROTOCOL: NCI tumour cell line growth inhibition, 48 h
MEASURED_ENDPOINT: TGI

Consider the worked cases shown below.
N#CC1C2CCC3(CC2CCN1C(=O)c1ccccc1)OCCO3 (stereo not given) ... > 100 µM
COc1ccccc1-c1cc(=O)c2ccc(OC)c(OC)c2o1 ... > 100 µM
NS(=O)(=O)c1ccc(NC(=O)c2cccc3cc4ccccc4nc23)cc1 ... > 100 µM
C#CC(O)/C=C/C(O)CCCC(O)CC#CC(O)C#CC(O)CCCC(O)/C=C/CCCC(=O)CCCCCCCCCCCCCCCC(O)C(O)C#CC(=O)O (stereo not given) ... > 50 µM

Alright, here's another compound for you.
# TGI of CC(Cc1ccccc1)NC1=NCCO1 (stereo not given) = > 100 µM

----------
# System: SR leukemia
# MEASUREMENT_PROTOCOL: NCI tumour cell line growth inhibition, 48 h
Rule: Yes for TGI not less than 5 µM, No for anything less.

As a guide, the following entries are already answered.
COC(=O)c1ccccc1C1CN=NC12Cc1cccc(C)c1C2=O (stereo not given) ... Yes
Cc1ccc(S(=O)(=O)N2CCNCCN(S(=O)(=O)c3ccc(C)cc3)CCN(S(=O)(=O)c3ccc(C)cc3)CC2)cc1 ... Yes

Confirm if TGI reported for the compound C[C@]1(O)O[C@@H]2OCC[C@@H]2C2=C1C(=O)c1ccccc1C2=O is 5 µM or above. Yes

Item C[C@H](N)C(=O)N1C[C@H](CCCB(O)O)[C@](N)(C(=O)O)C1 with TGI of 5 µM or above? Yes

Is TGI at least 5 µM? Consider O=C(Nc1cccc(-n2cc(-c3ccncc3)c(-c3ccc(O)c(Cl)c3)n2)c1)Nc1cccc(C(F)(F)F)c1 No

Is TGI at least 5 µM? Consider CNCCCNCCCN1C(=O)c2ccc3c4c(ccc(c24)C1=O)C(=O)N(CCCNCc1ccccc1OC)C3=O No

Please tell me: is the compound CC(=O)OCC1=C(C)C[C@H]([C@@H](COC(C)=O)C2CCC3C4C[C@H]5O[C@]56CC=CC(=O)[C@]6(C)C4CC[C@@]32C)OC1=O (stereo not given in full) at or over 5 µM in terms of TGI? No

Exam item: decide whether the reported TGI for NC(=O)CC(N=C1C(=O)OC(C(O)CO)C1=NC(CC(N)=O)C(=O)O)C(=O)O (stereo not given) is at least 5 µM. Yes

Test whether the compound Nc1ccc(Oc2ccc(C34CC5CC6C3CC3CC4C(C5)C6(c4ccc(Oc5ccc(N)c(O)c5)cc4)C3)cc2)cc1O records TGI of 5 µM or higher. Yes

Could you tell me if the measured TGI of C=C1C(=O)OC2CC(C)C3C=CC(=O)C3CC12 (stereo not given) reaches 5 µM or more? No

Could you tell me if the measured TGI of Clc1nc(Cl)c(CBr)c(Cl)n1 reaches 5 µM or more? Yes

Hello, I need to know if CCOC(=O)C(C(=O)OCC)=C1NC2(c3ccccc3Nc3ccc(C)cc32)C(C(=O)OC)S1 (stereo not given) has measured TGI not below 5 µM. Thanks! Yes

# bool: TGI of Cc1nc(C(N)=S)sc1C(=O)C/C(=N/N)C(=O)Nc1ccc(Cl)cc1 >= 5 µM Yes

Say whether Nn1c(Cc2ccccc2)n[nH]c1=O shows TGI of 5 µM or more. Yes

Could you verify whether the entry Cn1c(=O)c(Oc2ccccc2)cc2cnc(NC3CCOCC3)nc21 shows TGI of no less than 5 µM? Yes
